# credit: ChEMBL document CHEMBL4190383

Tested on: Staphylococcus aureus
RUN_DESCRIPTION: Growth inhibition of methicillin-resistant Staphylococcus aureus at 32 ug/ml
Type: functional
MEASUREMENT_PARAMETERS: read-out: GI
REPORTED_PROPERTY: inhibition of growth at 32 µg/mL (%)
Numbers only, in %.

Consider the following illustrative entries.
COMPOUND	UNIT_TEXT	REPORTED_MEASUREMENT
CC(C(=O)Nc1ccc2c(c1)COC2=O)c1ccc(C(=O)c2ccccc2)cc1 (configuration not stated)	%	25.2
O=C(Cc1ccc(F)c2ccccc12)Nc1ccc2c(c1)COC2=O	%	2.37
COc1c(C)c2c(c(O)c1C/C=C(\C)CCC(=O)O)C(=O)OC2 [MYCOPHENOLIC ACID]	%	52.4

Hi! Can you tell me inhibition of growth at 32 µg/mL for each of these compounds?
1. Cc1nnc(-c2ccc(OCc3cnnn3Cc3ccc(-c4ccccc4)cc3)cc2)o1
2. COc1cccc(Cn2nncc2COc2ccc(-c3nnc(C)o3)cc2)c1
3. Cc1nnc(-c2ccc(OCc3cnnn3Cc3ccccc3F)cc2)o1
4. Cc1nnc(-c2ccc(OCc3cnnn3Cc3cccc(Cl)c3)cc2)o1

## Result
14
5.5
7.55
10.3

====

RUN_DESCRIPTION: Octanol/water partition coefficient , logP of the compound
Format: physicochemical
REPORTED_PROPERTY: logP
Give bare numbers.

MOLECULE	logP
COc1c(C)c2c(c(O)c1C/C=C(\C)CCC(=O)O)C(=O)OC2	2.68

For the next question, use this molecule.
Reported logP for CC(C(=O)Nc1ccc2c(c1)COC2=O)c1ccc(C(=O)c2ccccc2)cc1 (stereo not given) was 3.67

====

Assign inhibition of growth at 32 µg/mL to each entry below.
System: Candida albicans
RUN_DESCRIPTION: Growth inhibition of Candida albicans at 32 ug/ml
Format: functional
MEASUREMENT_PARAMETERS: read-out: GI
Numbers only, in %.

Consider the following illustrative entries.
COMPOUND	STUDY_TARGET	inhibition of growth at 32 µg/mL, %
Cc1nnc(-c2ccc(OCc3cnnn3Cc3ccc(-c4ccccc4)cc3)cc2)o1	Candida albicans	-0.24
Cc1nnc(-c2ccc(OCc3cnnn3Cc3ccccc3F)cc2)o1	Candida albicans	2.24
COc1cccc(Cn2nncc2COc2ccc(-c3nnc(C)o3)cc2)c1	Candida albicans	3.07
CC(C(=O)Nc1ccc2c(c1)COC2=O)c1ccc(C(=O)c2ccccc2)cc1 (configuration not stated)	Candida albicans	5.25
COc1c(C)c2c(c(O)c1C/C=C(\C)CCC(=O)O)C(=O)OC2 [MYCOPHENOLIC ACID]	Candida albicans	96.9
O=C(Cc1ccc(F)c2ccccc12)Nc1ccc2c(c1)COC2=O	Candida albicans	5.47

For the next question, use this compound.
Field inhibition of growth at 32 µg/mL (system: Candida albicans) for entry `Cc1nnc(-c2ccc(OCc3cnnn3Cc3cccc(Cl)c3)cc2)o1` = -0.27

====

Test system: Pseudomonas aeruginosa
RUN_DESCRIPTION: Growth inhibition of Pseudomonas aeruginosa at 32 ug/ml
Assay type: functional
MEASUREMENT_PARAMETERS: read-out: GI
Assign inhibition of growth at 32 µg/mL to each entry below.
State the value with its unit after it.

Consider the following illustrative entries.
MOLECULE	inhibition of growth at 32 µg/mL
COc1c(C)c2c(c(O)c1C/C=C(\C)CCC(=O)O)C(=O)OC2 [MYCOPHENOLIC ACID]	18.8%
Cc1nnc(-c2ccc(OCc3cnnn3Cc3ccccc3F)cc2)o1	0.96%
CC(C(=O)Nc1ccc2c(c1)COC2=O)c1ccc(C(=O)c2ccccc2)cc1 (configuration not stated)	3.08%

Hi! Can you tell me inhibition of growth at 32 µg/mL for each of these molecules?
1. O=C(Cc1ccc(F)c2ccccc12)Nc1ccc2c(c1)COC2=O
2. Cc1nnc(-c2ccc(OCc3cnnn3Cc3ccc(-c4ccccc4)cc3)cc2)o1

## Result
1. -3.45%
2. 7.93%

Hi! Can you tell me inhibition of growth at 32 µg/mL for each of these molecules?
1. COc1cccc(Cn2nncc2COc2ccc(-c3nnc(C)o3)cc2)c1
2. Cc1nnc(-c2ccc(OCc3cnnn3Cc3cccc(Cl)c3)cc2)o1

## Result
1: 1.44%; 2: 5.84%
